assay: Example 2 multiple rising dose inhaled delta-9-THC study: plasma pharmacokinetics; conditions: human, plasma, inhaled, 1.2 mg, Cmax, Arithmetic Mean (SD), 1.2 mg s.d., Day 1, plasma
endpoint-name: Cmax (ng/mL)
Unit ng/mL implied. Number only.

Query: Quick check: Cmax of CCCCCc1cc(O)c2c(c1)OC(C)(C)[C@@H]1CCC(C)=C[C@@H]21 [delta-9-THC, delta-9-tetrahydrocannabinol] ?
Result: 24

----------
assay: Example 1 single rising dose inhaled delta-9-THC study: plasma pharmacokinetics; settings: male, human, plasma, inhaled, 2.4 mg
endpoint-name: Cmax (ng/mL)
Unit ng/mL implied. Number only.

Query: Quick check: Cmax of CCCCCc1cc(O)c2c(c1)OC(C)(C)[C@@H]1CCC(C)=C[C@@H]21 [delta-9-THC, delta-9-tetrahydrocannabinol] ?
Result: 23.6

# credit: patent US20070020193A1
